biological target: CC2-LZ (Mus musculus, UniProt O88522); test: Affinity of CC2-LZ dimerization; format: binding
Sequence (O88522 250-339 limits assumed): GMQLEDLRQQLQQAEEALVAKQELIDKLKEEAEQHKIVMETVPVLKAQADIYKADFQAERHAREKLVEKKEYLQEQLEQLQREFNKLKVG
MEASURE NAME: Kd
Write the quantity with the unit trailing the number.

Quick one: Kd for LEDLRQQLQQAEEALVAKQELIDKLKEEAEQHKIVMETVPVLKAQADIYKADFQAERHAREKLVEKKEYLQEQLEQLQREFNKL [CC2-LZ] ?
22 µM

Reference for the values: patent US20100240040A1
